- targetOrSystem: Galectin-1 (Homo sapiens, UniProt P09382)
- Sequence (P09382 whole entry): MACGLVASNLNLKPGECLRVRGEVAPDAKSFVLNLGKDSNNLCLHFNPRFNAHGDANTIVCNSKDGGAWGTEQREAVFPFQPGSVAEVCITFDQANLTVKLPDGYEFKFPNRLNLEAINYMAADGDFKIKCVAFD
- experimentalProtocol: fluorescence anisotropy assay, compound as inhibitor of galectin / fluorescein tagged saccharide probe interaction
- Type: binding
- Text: Anal. Biochem. 334: 36-47, (Sörme et al., 2004) and Monovalent interactions of Galectin-1 By Salomonsson, Emma; Larumbe, Amaia; Tejler, Johan; Tullberg, Erik; Rydberg, Hanna; Sundin, Anders; Khabut, Areej; Frejd, Torbjorn; Lobsanov, Yuri D.; Rini, James M.; et al, From Biochemistry (2010), 49(44), 9518-9532, (Salomonsson et al., 2010).
pKd: −log10 of the molar value.
Reported values of pKd for individual entries
experimentalEndpoint: pKd

INSERT INTO results (compound, resultvalue) VALUES
  ('CO[C@@H]1[C@@H](n2cc(-c3nc(Cl)cs3)nn2)[C@@H](O)[C@@H](CO)O[C@@H]1Sc1cc(C)cnc1C#N [Example 36]', 6.72),
  ('CO[C@@H]1[C@@H](n2cc(-c3csc(N)n3)nn2)[C@@H](O)[C@@H](CO)O[C@@H]1Sc1cnc(C(F)(F)F)c(C#N)c1 [Example 44]', 6.44),
  ('CO[C@@H]1[C@@H](n2cc(-c3nc(C)cs3)nn2)[C@@H](O)[C@@H](CO)O[C@@H]1Sc1cc(Br)cnc1C#N [Example 34]', 7.28),
  ('CO[C@@H]1[C@@H](n2cc(-c3nc(C)cs3)nn2)[C@@H](O)[C@@H](CO)O[C@@H]1Sc1cc(C)cnc1C#N [Example 35]', 6.31),
  ('CO[C@@H]1[C@@H](n2cc(-c3nc(Cl)cs3)nn2)[C@@H](O)[C@@H](CO)O[C@@H]1Sc1cc(Br)cnc1C#N [Example 11]', 7.72),
  ('N#Cc1ncc(Cl)cc1S[C@H]1O[C@H](CO)[C@H](O)[C@H](n2cc(-c3csc(N)n3)nn2)[C@H]1OCc1ccccc1 [Example 19]', 7.10),
  ('CO[C@@H]1[C@@H](n2cc(-c3csc(O)n3)nn2)[C@@H](O)[C@@H](CO)O[C@@H]1Sc1cc(Br)ccc1C#N [Example 58]', 7.66),
  ('C#Cc1cncc(S[C@H]2O[C@H](CO)[C@H](O)[C@H](n3cc(-c4nc(Cl)cs4)nn3)[C@H]2O)c1 [Example 80]', 6.51),
  ('N#Cc1ncc(Cl)cc1S[C@H]1O[C@H](CO)[C@H](O)[C@H](n2cc(-c3nccs3)nn2)[C@H]1OCc1ccccc1 [Example 5]', 6.72),
  ('CNC(=O)c1ccc(Br)cc1S[C@H]1OC(CO)[C@H](O)C(n2cc(-c3nc(Cl)cs3)nn2)C1OC (some centres unmarked) [Example 60]', 7.41),
  ('CNC(=O)c1ncc(Cl)cc1S[C@H]1O[C@H](CO)[C@H](O)[C@H](n2cc(-c3nc(Cl)cs3)nn2)[C@H]1OC [Example 93]', 7.82),
  ('CCO[C@@H]1[C@@H](n2cc(-c3csc(N)n3)nn2)[C@@H](O)[C@@H](CO)O[C@@H]1Sc1ccc(Cl)c(Cl)c1 [Example 87]', 6.96),
  ('CO[C@@H]1[C@@H](n2cc(-c3csc(N)n3)nn2)[C@@H](O)[C@@H](CO)O[C@@H]1Sc1cncc(C#N)c1 [Example 40]', 6.62),
  ('COC1C(n2cc(-c3nc(Cl)cs3)nn2)[C@@H](O)C(CO)O[C@@H]1Sc1cc(Cl)cnc1C(=O)N1CCC1 (some centres unmarked) [Example 45]', 7.66),
  ('Nc1nc(-c2cn([C@H]3[C@@H](O)[C@@H](CO)O[C@H](Sc4ccc(Cl)c(Cl)c4)[C@@H]3OCC(F)(F)F)nn2)cs1 [Example 78]', 6.28),
  ('CO[C@@H]1[C@@H](n2cc(-c3csc(N)n3)nn2)[C@@H](O)[C@@H](CO)O[C@@H]1Sc1cc(Cl)cnc1-c1cncnc1 [Example 21]', 7.35),
  ('CO[C@@H]1[C@@H](n2cc(-c3nccs3)nn2)[C@@H](O)[C@@H](CO)O[C@@H]1Sc1cc(Cl)cnc1C#N [Example 4]', 6.96),
  ('N#Cc1ccc(Cl)cc1S[C@@H]1C[C@@H](n2cc(-c3nc(Cl)cs3)nn2)[C@@H](O)[C@@H](CO)O1 [Example 43]', 6.89),
  ('CCO[C@@H]1[C@@H](n2cc(-c3csc(N)n3)nn2)[C@@H](O)[C@@H](CO)O[C@@H]1Sc1cc(Cl)cnc1C [Example 20]', 7.17),
  ('N#Cc1ccc(S[C@@H]2C[C@@H](n3cc(-c4csc(N)n4)nn3)[C@@H](O)[C@@H](CO)O2)cc1Cl [Example 42]', 6.14),
  ('CO[C@@H]1[C@@H](n2cc(-c3csc(N)n3)nn2)[C@@H](O)[C@@H](CO)O[C@@H]1Sc1cc(Cl)ccc1C#N [Example 73]', 7.25),
  ('CO[C@@H]1[C@@H](n2cc(-c3nc(C)c(Cl)s3)nn2)[C@@H](O)[C@@H](CO)O[C@@H]1Sc1cc(Br)cnc1C#N [Example 64]', 6.55),
  ('CO[C@@H]1[C@@H](n2cc(-c3csc(N)n3)nn2)[C@@H](O)[C@@H](CO)O[C@@H]1Sc1cc(Cl)cnc1C#N [Example 17]', 7.48),
  ('CO[C@@H]1[C@@H](n2cc(-c3nc(Cl)cs3)nn2)[C@@H](O)[C@@H](CO)O[C@@H]1Sc1cnc(C#N)c(Br)c1 [Example 12]', 7.62),
  ('CC(C)O[C@@H]1[C@@H](n2cc(-c3csc(O)n3)nn2)[C@@H](O)[C@@H](CO)O[C@@H]1Sc1ccc(Cl)c(Cl)c1 [Example 8]', 7.00),
  ('CO[C@@H]1[C@@H](n2cc(-c3nc(Cl)cs3)nn2)[C@@H](O)[C@@H](CO)O[C@@H]1Sc1cncc(Br)c1 [Example 54]', 7.05);
